Below, each entry is listed alongside its reported IC50.
Test system: Leishmania donovani
ASSAY_PROTOCOL: Antimicrobial activity against promastigotes of Leishmania donovani assessed as inhibition of cell proliferation after 72 hrs by alamar blue assay
Assay type: functional, organism-based

[
  {
    "COMPOUND": "COc1cc2cc(C(=O)Nc3cc(N)c4ccccc4c3CCCl)[nH]c2c(OC)c1OC [CENTANAMYCIN]",
    "IC50": "13 nM"
  }
]

# input for lookup
Please report the recorded IC50 for COc1cc2cc(C(=O)Nc3cc(O)c4ncc(C)cc4c3CCCl)[nH]c2c(OC)c1OC .
340 nM

* * *

Test system: Plasmodium falciparum
ASSAY_PROTOCOL: Antimicrobial activity against Plasmodium falciparum infected in human erythrocytes assessed as growth inhibition
Type: functional, organism-based
MEASURED_ATTRIBUTE: pIC50
Keep it numeric: pIC50 is minus log10 of the concentration in mol/L.

[
  {
    "MOLECULE": "COc1cc2cc(C(=O)Nc3cc(O)c4ncc(C)cc4c3CCCl)[nH]c2c(OC)c1OC",
    "pIC50": 8.74
  }
]

Here's the next entry for you.
Request the reported pIC50 associated with COc1cc2cc(C(=O)Nc3cc(N)c4ccccc4c3CCCl)[nH]c2c(OC)c1OC [CENTANAMYCIN]
8.74

Entry source: ChEMBL document CHEMBL1250434
